- Tested on: Bcap37
- experiment summary: Cytotoxicity against human Bcap37 cells after 48 hrs by MTT assay
- Format: functional, cell-based
- condition details: Bcap37, 48 h
measurement name: IC50 (µM)
Expressed in µM, but write only the number.

> print(dat)
                                    compound  measurement.name  result.value
 1    O=c1[nH]cc(F)c(=O)[nH]1 [FLUOROURACIL]              IC50          5.58
 2  CC1=NN(C(=O)CSc2ccccn2)[C@@H](c2cc(Br)cc(Br)c2O)C1              IC50          16.7
 3  O=C(CSc1ccc(Br)cc1)N1N=C(c2cc3ccccc3oc2=O)C[C@@H]1c1ccccc1              IC50            13
 4  CC1=NN(C(=O)CSc2ccccc2)[C@@H](c2cc(Br)cc(Br)c2O)C1              IC50          13.1
 5  O=C(CSCc1ccco1)N1N=C(c2cc3ccccc3oc2=O)C[C@@H]1c1ccc(C(F)(F)F)cc1              IC50            12
 6  CCCSCC(=O)N1N=C(C)C[C@@H]1c1cc(Br)cc(Br)c1O              IC50          3.24
 7  CCCCSCC(=O)N1N=C(c2cc3ccccc3oc2=O)C[C@@H]1c1ccc(C(F)(F)F)cc1              IC50          3.55
 8  O=C(CSc1ncccn1)N1N=C(c2cc3ccccc3oc2=O)C[C@@H]1c1ccccc1C(F)(F)F              IC50          4.09
 9  CC1=NN(C(=O)CSc2nc3ccccc3s2)[C@@H](c2cc(Br)cc(Br)c2O)C1              IC50           9.7
10  O=C(CSc1ncccn1)N1N=C(c2cc3ccccc3oc2=O)C[C@@H]1c1ccc(C(F)(F)F)cc1              IC50          3.77

Checklist item: IC50 tested on Bcap37, entry O=C(CSCc1ccco1)N1N=C(c2cc3ccccc3oc2=O)C[C@@H]1c1ccccc1C(F)(F)F , value?
10.3

Checklist item: IC50 tested on Bcap37, entry O=C(CSc1ccc(Br)cc1)N1N=C(c2cc3ccccc3oc2=O)C[C@@H]1c1ccc(C(F)(F)F)cc1 , value?
7.99

====

- Tested on: Bcap37
- experiment summary: Cytotoxicity against human Bcap37 cells after 48 hrs by MTT assay
- Assay type: functional, cell-based
- condition details: Bcap37, 48 h
measurement name: IC50 (µM)
Expressed in µM, but write only the number.

> print(dat)
                           substance.smiles  result.value
1  O=C(CSc1ccc([N+](=O)[O-])cc1)N1N=C(c2cc3ccccc3oc2=O)C[C@@H]1c1ccccc1C(F)(F)F          10.8

Checklist item: IC50 tested on Bcap37, entry CCCCSCC(=O)N1N=C(c2cc3ccccc3oc2=O)C[C@@H]1c1ccccc1C(F)(F)F , value?
9.73

Checklist item: IC50 tested on Bcap37, entry O=C(CSc1ccc([N+](=O)[O-])cc1)N1N=C(c2cc3ccccc3oc2=O)C[C@@H]1c1ccc(C(F)(F)F)cc1 , value?
16.5

====

- System: Bcap37
- experiment summary: Cytotoxicity against human Bcap37 cells after 48 hrs by MTT assay
- Assay type: functional, cell-based
- condition details: Bcap37, 48 h
measurement name: IC50

GET /values?readout=IC50&item= COC(=O)CSCC(=O)N1N=C(C)C[C@@H]1c1cc(Br)cc(Br)c1O
3.7 µM

GET /values?readout=IC50&item= O=C(CSc1ccccc1)N1N=C(c2cc3ccccc3oc2=O)C[C@@H]1c1ccccc1
14.8 µM

GET /values?readout=IC50&item= CCCCSCC(=O)N1N=C(c2cc3ccccc3oc2=O)C[C@@H]1c1ccccc1
9.7 µM

GET /values?readout=IC50&item= CC1=NN(C(=O)CSc2ccc(Br)cc2)[C@@H](c2cc(Br)cc(Br)c2O)C1
3.2 µM

GET /values?readout=IC50&item= O=C(CSc1ccc(Br)cc1)N1N=C(c2cc3ccccc3oc2=O)C[C@@H]1c1ccccc1C(F)(F)F
10.3 µM
